# test name: Metabolic stability in human liver microsomes assessed as intrinsic clearance
# Format: ADME, Microsome
# measurement setup: read-out: CLH
Measured microsomal CLint of individual entries
assay metric: microsomal CLint (µL/min/mg)

                              smiles_record      assay_metric  observed_result
0  Oc1ccc2c(c(-c3nnco3)cn2-c2ccc(Br)cc2)c1CN1CCC1  microsomal CLint             13.8
1  CC(=O)c1c(C)n(-c2ccc(C3CCNCC3)cc2)c2ccc(O)c(CN3CCCCC3)c12  microsomal CLint             66.9
2  Oc1ccc2c(c(-c3nnco3)cn2-c2ccc(Br)cc2)c1CN1CCCCC1  microsomal CLint               21
3  CC(=O)c1c(C)n(-c2ccc(Br)cc2)c2ccc(O)c(CN3CCCCC3)c12  microsomal CLint             23.9
4  Oc1ccc2c(c(-c3nnco3)cn2-c2ccc(Br)cc2)c1CN1CCCC1  microsomal CLint             21.2
5  CC(=O)c1cn(-c2ccc(-c3ccccc3)s2)c2ccc(O)c(CN3CCC3)c12  microsomal CLint             10.7
